tested on: Vibrio cholerae; test: IC25 growth inhibition; higher = less potent

| compound | IC25 growth inhibition |
| --- | --- |
| CCOC1O[C@H]([C@@H](COCc2ccccc2)OCc2ccccc2)[C@H](OCc2ccccc2)[C@H]1O (stereo partly specified) [Tribenoside] | > 40 µM |
| CNCCC(Oc1ccc(C(F)(F)F)cc1)c1ccccc1 (stereo unspecified) | ≤ 160 µM |
| CN[C@H](CC(C)C)C(=O)N[C@H]1C(=O)N[C@@H](CC(N)=O)C(=O)N[C@H]2C(=O)N[C@H]3C(=O)N[C@H](C(=O)N[C@H](C(=O)O)c4cc(O)cc(O)c4-c4cc3ccc4O)[C@H](O)c3ccc(c(Cl)c3)Oc3cc2cc(c3O[C@@H]2O[C@H](CO)[C@@H](O)[C@H](O)[C@H]2O[C@H]2C[C@](C)(N)[C@H](O)[C@H](C)O2)Oc2ccc(cc2Cl)[C@H]1O | > 160 µM |
| CCn1cc(C(=O)O)c(=O)c2ccc(C)nc21 | < 1.25 µM |
| CCc1oc2ccccc2c1C(=O)c1cc(Br)c(O)c(Br)c1 | ≤ 160 µM |
| CCOC(=O)N1CCC(=C2c3ccc(Cl)cc3CCc3cccnc32)CC1 | > 160 µM |

----------
system: Com21 synthetic gut community; test: community biomass OD578 after 24 h drug treatment relative to untreated (fraction of untreated control); higher = more community growth; details: drug pretreatment concentration 160 µM; community: Com21 (Com20 + E. coli ED1a)
// community biomass OD578 lookup, one value per entry

| compound | community biomass OD578 |
| --- | --- |
| OC(Cn1cncn1)(Cn1cncn1)c1ccc(F)cc1F | 1.04 |
| O=C1NCCN1CCN1CCC(c2cn(-c3ccc(F)cc3)c3ccc(Cl)cc23)CC1 | 0.451 |
| C[C@H]1O[C@H](O[C@H]2[C@H](O)[C@@H](O)[C@@H](O[C@H]3[C@H](O)[C@@H](O)C(O)O[C@@H]3CO)O[C@@H]2CO)[C@H](O)[C@@H](O)[C@@H]1N[C@H]1C=C(CO)[C@@H](O)[C@H](O)[C@H]1O (stereo partly drawn) | 0.989 |

----------
system: Streptococcus parasanguinis; assay: IC25 growth inhibition; higher = less potent
Each entry below carries its reported IC25 growth inhibition.

| compound | IC25 growth inhibition |
| --- | --- |
| Cc1c(Cl)cccc1Nc1ccccc1C(=O)O [Tolfenamic acid] | > 160 µM |
| CC(=O)N1CCN(c2ccc(OCC3COC(Cn4ccnc4)(c4ccc(Cl)cc4Cl)O3)cc2)CC1 (stereo not drawn) [Ketoconazole] | > 80 µM |
| O=c1oc2ccccc2c(O)c1Cc1c(O)c2ccccc2oc1=O [Dicumarol] | ≤ 10 µM |
| CC(CN1c2ccccc2Sc2ccccc21)N(C)C (stereo not drawn) [Promethazine] | > 160 µM |
| COc1ccc2[nH]c([S+]([O-])Cc3ncc(C)c(OC)c3C)nc2c1 (stereo not drawn) [Omeprazole] | > 160 µM |
| NC[C@H]1O[C@H](O[C@H]2[C@H](O)[C@@H](O[C@H]3O[C@H](CO)[C@@H](O)[C@H](N)[C@H]3O)[C@H](N)C[C@@H]2N)[C@H](N)C[C@@H]1O [Tobramycin] | ≤ 5 µM |
| CCN(CC)CCOc1ccc(C(=C(Cl)c2ccccc2)c2ccccc2)cc1 [Clomifen] | ≤ 80 µM |
| C[C@]1(Cn2ccnn2)[C@H](C(=O)O)N2C(=O)C[C@H]2S1(=O)=O [Tazobactam] | ≤ 40 µM |
